We begin with a simple list: items and their reported growth.
test system: SK-OV-3 ovarian; assay: NCI-60 one-dose screen, 48 h (100 = growth as untreated, 0 = no growth, -100 = all killed); conditions: 10 µM unless noted
Compounds without any hit were thinned out: in the full panel of roughly 83,000, 20% have a hit.
Give your result in % as a bare value.

Examples from the recorded data:
## Task Lookup: growth / SK-OV-3 ovarian / O=C(/C=C/c1ccc(Cl)cc1)c1ccc(Nc2ccnc3cc(Cl)ccc23)cc1
## Result 112

## Task // lookup growth | system=SK-OV-3 ovarian | key= COc1cc(/C=C2\CN(S(=O)(=O)c3ccc(C)cc3)C/C(=C\c3cc(CN4CCCC4)c(O)c(OC)c3)C2=O)cc(CN2CCCC2)c1O
## Result 33.9

## Task Please state recorded growth (tested on SK-OV-3 ovarian) of C=C(c1ccc(OC)c(/C=C/C(=O)c2cc(OC)c(OC)c(OC)c2)c1)c1cc(OC)c(OC)c(OC)c1
## Result 38.6

More entries:
## Task // fetch SK-OV-3 ovarian growth for N#C/C(=C/C=C/c1ccccc1)S(=O)c1ccccc1 (stereo not given)
## Result 32.3

## Task State its growth on SK-OV-3 ovarian: CC1=NN(c2cccc(Cl)c2)C(=O)/C1=C\C=C\c1ccccc1
## Result 39.4

## Task Notebook entry, SK-OV-3 ovarian assay: growth of COc1cccc(-c2cc(-c3ccc(Nc4nc(Nc5ccc(Cl)cc5)nc(Nc5ccc(Cl)cc5)n4)cc3)nc(N)c2C#N)c1 = ?
## Result 122

## Task Provide value of growth for this record tested with SK-OV-3 ovarian: O=C(Nc1ccc(Cl)cc1)C1=NCCCCN1
## Result 88.1

## Task Lab request: please report growth under test system SK-OV-3 ovarian for Nc1ccc(N)c2c1C(=O)c1cccc([N+](=O)[O-])c1C2=O
## Result 27.6

## Task Recall the recorded growth for CCOC(=O)CCC(=O)P(=O)(O)O with SK-OV-3 ovarian and state it.
## Result 80.5

## Task Request - read-out growth | tested on SK-OV-3 ovarian | molecule N#Cc1nn(-c2ccccn2)c(N)c1C#N
## Result 91.5

###

Test system: NCI-H23 lung
Assay: NCI-60 one-dose screen, 48 h
Details: 10 µM unless noted
Procedure: Growth inhibition of the NCI-H23 human Non-Small Cell Lung tumor cell line is measured as a screen for anti-cancer activity. Cells are grown in 96 well plates and exposed to the test compound for 48 hours. Compounds are tested at a single concentration, which is 10^-5 M for most compounds. The reported endpoint is percent growth (GI% or GIPRCNT), where numbers from 0 - 100% represent growth inhibition, and numbers from -100% - 0 represent cell death. […]
This is part of a sample that, as a whole, favours compounds with a hit. Of some 83,000 tested, about 20% had one in any assay. Active and inactive are the calls of the source. The calls were made as follows: active = growth percent below 10; inactive = the rest.
Choose one outcome from this list and give only that: True (active), False (inactive)

Some entries whose results are on file:
## Task State the result this test recorded for O=C(O)c1nn(-c2ccc(Cl)cc2)nc1N1CCCC1 .
## Result False

## Task Just curious, what result did Cn1cc(-c2ccc3c(Nc4cccc(NC(=O)Nc5cccc(F)c5)c4)ncnc3c2)cn1 get here?
## Result False

# next compound below
## Task Hi, do you know how CCOC(=O)c1c(NC(=S)Nc2ccc([N+](=O)[O-])cc2)sc2c1CCCCC2 came out in this test?
## Result False

###

growth values by entry
tested on: KM12 colon; assay: NCI-60 one-dose screen, 48 h (100 = growth as untreated, 0 = no growth, -100 = all killed); conditions: 10 µM unless noted
This is part of a sample that, as a whole, favours compounds with a hit. Of some 83,000 tested, about 20% had one in any assay.
Field: numeric (%). Do not append units.

Some entries whose results are on file:
## Task // returns reported growth for input CCN1CCN(c2nc(NNC(=O)c3ccc(OC)cc3)nc(N3CCN(C(c4ccccc4)c4ccccc4)CC3)n2)CC1
## Result 36.9

## Task // returns reported growth for input O=C1C2C(c3cccs3)C=C(c3ccc(Cl)cc3)N2C(=S)N1c1ccccc1 (centres undefined)
## Result 104

## Task For CCOC(=O)c1c(Nc2nc3ccccc3s2)sc2c1CCC(=O)C2 , what is its reported growth?
## Result 47.7

## Task Look up growth for this compound: COc1ccc(C(c2cc(OC)c(OC)c(OC)c2)n2cncn2)cc1O (centres undefined)
## Result 21.8

## Task Reported growth for O=C1C=CC2(O)OC(c3ccccc3)CC(=O)C2=C1O (centres undefined) : what is it?
## Result 15.9

## Task Look up growth: CC(C)n1cc(C2=C(c3cccc4ccccc34)C(=O)NC2=O)c2cc(Br)ccc21
## Result 36.5

Alright, here's another compound for you.
## Task Form field: reported growth of Cc1nn(-c2ccccc2)c(Oc2ccccc2)c1/C=N/NC(=O)Cn1c(=O)sc2ccccc21
## Result 56

###

Tested on: CCRF-CEM leukemia
Test: NCI-60 one-dose screen, 48 h (100 = growth as untreated, 0 = no growth, -100 = all killed)
Settings: 10 µM unless noted
Protocol: Growth inhibition of the CCRF-CEM human tumor cell line is measured as a screen for anti-cancer activity. Cells are grown in 96 well plates and exposed to the test compound for 48 hours. Compounds are tested at a single concentration, which is 10^-5 M for most compounds. The reported endpoint is percent growth (GI% or GIPRCNT), where numbers from 0 - 100% represent growth inhibition, and numbers from -100% - 0 represent cell death. For example, a value of 40 represents 60% growth inhibition. […]
The panel holds about 83,000 compounds, 20% with a hit somewhere; the sample as a whole holds those more often.
# Lookup of reported growth keyed by entry
The reply should contain only the number, in %.

Some compounds with known growth results, for comparison:
## Task Consider the compound shown here: CC(C)=CCC[C@](C)(O)C1CC[C@]2(C)[C@@H]1CC[C@@H]1[C@@]3(C)CC/C(=N\OCCC#N)C(C)(C)[C@@H]3CC[C@]12C (stereo not given in full) What is its recorded growth?
## Result 75.8

## Task Consider the compound Oc1ccc(C2OCCO2)c2cccnc12 and give its measured growth.
## Result 13.5

## Task For O=C(O)c1nn(-c2ccc(Cl)cc2)nc1N1CCCC1 , what is its reported growth?
## Result 100

## Task Can you share its growth? I mean this compound: CCOC(=O)c1c(N)sc2cc(O)ccc12
## Result 111

## Task Give its growth value. Item: O=C1Nc2ccccc2/C1=C/c1cccn1CCCCCCn1c2ccccc2c(=O)c2ccccc21
## Result 49.8

## Task Quick check: growth of CC(=O)c1ccc(Nc2nccc(-c3ccc(Cl)cc3)n2)cc1 ?
## Result 84.4

## Task Give its growth value. Item: O=[N+]([O-])c1ccc(Oc2cccc3c(Oc4ccc([N+](=O)[O-])cc4[N+](=O)[O-])cccc23)c([N+](=O)[O-])c1
## Result 95.7

## Task I would be grateful if you could share the reported growth for O=C1c2cccnc2C(=O)c2c1c(C(=O)OCCCN1CCOCC1)c1ccccn21 .
## Result -5.87

***
## Task For the compound O=C(O)CCCN1C(=O)CSC1=S , what growth is on record?
## Result 99.6

## Task For O=C(Nc1ncc(Cc2cc(C(F)(F)F)ccc2Cl)s1)C(=S)N1CCOCC1 , what is its reported growth?
## Result 92.3

## Task Reported growth for O=C1CCC(C(=O)N/N=C/c2ccc([N+](=O)[O-])cc2)N1 (stereo not given) : what is it?
## Result 97

## Task Recorded growth of CC(C)(C)c1ccc(C(=O)Nc2sc3c(c2C#N)CCC(=O)C3)cc1 , please.
## Result 8.53

## Task Which measured growth value corresponds to COc1ccc(-n2c(=O)n(-c3ccc(-c4nc5ccc(F)cc5s4)cc3)c(=O)c3cccnc32)cc1 ?
## Result 102

## Task Can you share its growth? I mean this compound: O=C(Nc1cccc(Cn2c(=O)[nH]c3ccc(Oc4ncccn4)cc3c2=O)c1)c1cccc(Cl)c1
## Result 47.1

## Task // growth lookup, key: COc1cc(C2=Nc3c(N)nc(N)nc3NC(c3cccc(Nc4ccnc5cc(C(F)(F)F)ccc45)c3)C2)cc(OC)c1OC (stereo not given)
## Result 51.7

## Task # lookup: growth of O=C(Nc1ncc(Cc2ccccc2Cl)s1)c1ccc2c(c1)OCCO2
## Result 6.45

## Task Need growth, item CCN1C(=O)N(CC)C2C1NC(=S)N2/N=C/C=C/c1ccccc1 (stereo not given)
## Result 2.75

## Task Looking for the measured growth of CCOC(=O)c1ccc2c(c1)c1c(C)c3cnccc3c(C)c1n2C , can you help?
## Result -2.56

## Task Any idea what its growth is? The compound is CC(=O)O[C@H]1CC[C@@]2(C)C(=CC[C@@H]3[C@@H]2CC[C@]2(C)C(Cl)=C(c4nc5ccc(Cl)cn5c4NC(C)(C)C)C[C@@H]32)C1
## Result 92.3

## Task Would you kindly share the measured growth for CCn1c2ccccc2c2cc(C(O)c3cccc4ncccc34)ccc21 (stereo not given) ?
## Result 8.21

Where these numbers come from: PubChem BioAssay (NCI)
